Tested on: immunoglobulin light chain protein WIL-FL T46L
procedure.summary: Differential scanning fluorimetry (thermal shift) assay
Assay type: binding
experimental.setup: Table B; temperature shift [Tm]compound-[Tm]vehicle; recombinant WIL-FL T46L
reported.endpoint: DSF

Check out these entries, answers already filled in.
{"molecule": "Cc1cc(N2CC[C@](C)(c3ccccc3)C2)cn2nc(C34CC(CO3)C4CN3CC4C(C3)C4C(=O)O)nc12 (stereo partly drawn)", "DSF": "***** (>2.5° C.=*****)"}
{"molecule": "CCC1(c2ccccc2)CN(c2cc(C)c3nc(C(=O)N4C[C@@H]5CN(c6cccc(C(=O)O)n6)C[C@@H]5C4)nn3c2)C1", "DSF": "***** (>2.5° C.=*****)"}
{"molecule": "Cc1cc(N2CC[C@](C)(c3ccccc3)C2)cn2nc(C(=O)N3C[C@@H]4CN(c5cccc(C(=O)O)n5)C[C@H]4C3)nc12", "DSF": "***** (>2.5° C.=*****)"}
{"molecule": "Cc1nc(N2CC3(CC(NC(=O)c4nc5c(C)cc(N6CC[C@](C)(c7ccccc7)C6)cn5n4)C3)C2)ccc1C(=O)O", "DSF": "***** (>2.5° C.=*****)"}
{"molecule": "Cc1cc(N2CC[C@](C)(c3ccccc3)C2)cn2nc([C@@]34C[C@@H](CO3)[C@H]4N3CC4(CC4)NC3=O)nc12", "DSF": "***** (>2.5° C.=*****)"}

q: I have this molecule here, Cc1cc(N2CC[C@](C)(c3ccccc3)C2)cn2nc(C(=O)NC3(CO)CCCN(c4cccc(C(=O)O)n4)C3)nc12 (stereo partly drawn) , and I need its recorded DSF.
a: ***** (>2.5° C.=*****)

Hello, the source for this data is patent US20260285857A1, in case you need it.
